Data provenance: a melting point compilation (Tetko et al.; mined from patent text by program, amines drawn as free bases though some values may be those of a salt)

Reported melting point values follow for various molecules
Quantity kind: melting point

| Molecule | Result |
| --- | --- |
| COc1ccc(N=C(NC(=S)NCCO)c2ccccc2)cc1 | 141 to 142 °C |
| Cc1ccc(C(=O)c2cnn3c(-c4cccc(NC(=O)C5CC5)c4)ccnc23)s1 | 243 to 245 °C |
| COC(=O)c1cc2cc(OC)c(OC)cc2cc1C(=O)O | 181 to 183 °C |
| Cc1ccc(C(=O)Nc2nc(-c3ccccc3)c(-c3nc4ccccc4c(=O)n3-c3ccc(C)cc3)s2)cc1 | 217 to 218 °C |
| O=C1C2C(C(=O)N1Cc1ccccc1)C2[N+](=O)[O-] (stereo not given) | 108 to 109 °C |
| O=C(O)COc1ccccc1Cn1nc(-c2cccs2)c(Cc2cc3c(cc2Cl)OCO3)c1C(=O)O | > 260 °C |
| COC(=O)C(=O)Oc1c(F)c(F)c(F)c(F)c1F | 34 to 35 °C |
| ON=Cc1cccc2cccc(N3CCCC3)c12 | 187 to 188 °C |
| Cn1ccnc1Sc1ccc(Nc2c(C#N)cnc3cc(/C=C/CCOC4CCCCO4)ccc23)cc1Cl (stereo not given) | 217 to 220 °C |
| Cc1ccc(Nc2ccccc2C(=O)O)c([N+](=O)[O-])c1 | 209 to 213 °C |

====

Entries and their measured melting point follow.

| Compound | melting point |
| --- | --- |
| CC(C)NC(=O)CC(=O)C=Cc1ccccc1[N+](=O)[O-] | 132 to 135 °C |
| Cn1c(CNCC(C)(C)C)cc2cc(NC(=O)c3ccc(C#CC4(O)CC4)cc3)ccc21 | 173 °C |
| C#Cc1cccc(C(=O)OCC)c1 | 36 to 38 °C |
| CCOP(=O)(NC(=O)c1[nH]c2cc(OC)c(OC)cc2c1-c1ccc(OC)c(OC)c1)OCC | 217 to 219 °C |
| CCOC(=O)C1=C(N)N=C(N(C)C)C(C(=O)OCC)C1c1cccc([N+](=O)[O-])c1 (stereo unspecified) | 149 °C |
| CCc1nc2c(C)cc(C)nc2n1Cc1ccc(C(=Cc2nnn[nH]2)c2ccccc2Cl)cc1 | 28 °C |
| CC1(C(=O)NNc2c(Cl)cc(C(F)(F)F)cc2Cl)CC1(Cl)Cl (stereo unspecified) | 174 to 175 °C |
| CCCCCCCCCOC1CCC(=O)N1 (stereo unspecified) | 46 to 48 °C |
| Clc1ccc(OC2CCN(CCc3c[nH]c4ccccc34)CC2)cc1 | 132 to 133 °C |
| COc1cc(OC)nc(CCl)n1 | 40 to 42 °C |
| CN(C)CCC=C1c2ccccc2CCc2ccc(S(C)(=O)=O)cc21 | 109 to 110 °C |
| CCOCc1cc2ccccc2oc1=Nc1ccc(Br)cc1 | 73 to 74 °C |
| CC=C(C(=O)OC(c1ccccc1)c1ccccc1)N1C(=O)[C@@H]2N=C(Cc3ccccc3)O[C@@H]21 | 104 to 106 °C |
| COc1cnn(C)c(=O)c1-c1c(C)cc(C)cc1C | 186 to 192 °C |
| CCc1c(-c2ccc(OC)cc2)c2c(C(=O)O)c(C(=O)O)c3cc(OC)cc1n32 | 209 to 211 °C |
| CCCc1nc2c(N)nc3cc(OCCN4CCCC4=O)ccc3c2s1 | 163 to 166 °C |
| O=[N+]([O-])c1cc(Cl)ccc1N1CCc2ccccc21 | 97 to 99 °C |
| COc1cccc([C@H]2O[C@H](CC(=O)NCP(=O)(O)O)C(=O)N(CC(C)(C)C)c3ccc(Cl)cc32)c1OC | 152 to 155 °C |
| Cc1ccc(C)c(COc2ccc(N)nn2)c1 | 109 to 111 °C |
| FC(F)(F)c1c(CNC2Cc3ccccc3C2)ccn2c(CC3CC3)nnc12 | > 300 °C |
| Nc1cc(I)cnc1N | 109 to 111 °C |
